- TARGET OR SYSTEM: glucokinase (GK), human enzyme (Homo sapiens)
- Sequence (P35557 1-465): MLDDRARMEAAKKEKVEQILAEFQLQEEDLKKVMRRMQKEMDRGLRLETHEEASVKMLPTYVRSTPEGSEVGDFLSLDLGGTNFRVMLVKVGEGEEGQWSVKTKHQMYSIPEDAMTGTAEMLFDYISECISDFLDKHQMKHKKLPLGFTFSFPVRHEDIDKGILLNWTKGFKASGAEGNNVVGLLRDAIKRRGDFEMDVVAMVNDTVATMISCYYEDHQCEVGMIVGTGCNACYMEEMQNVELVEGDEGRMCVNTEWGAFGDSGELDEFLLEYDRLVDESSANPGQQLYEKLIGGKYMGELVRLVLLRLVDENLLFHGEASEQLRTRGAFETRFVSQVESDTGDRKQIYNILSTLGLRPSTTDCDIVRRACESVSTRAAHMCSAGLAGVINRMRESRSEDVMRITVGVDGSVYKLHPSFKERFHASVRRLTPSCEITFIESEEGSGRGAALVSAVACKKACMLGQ
- TEST METHOD NOTES: Glucokinase Activation Screening Assay (coupled enzyme assay with PK/LDH, NADH decline at 340 nm)
- Assay type: biochemical
- COND: relative to control incubation with 2 mM glucose
- Procedure: Glucokinase Activation Screening Assay GK activity (human or rat enzyme) is measured by an coupled enzyme assay using pyruvate kinase (PK) and lactate dehydrogenase (LDH) as coupling enzymes. GK activity is calculated from the decline in NADH monitored photometrically with a microtiter plate (MTP) reader at 340 nm. For screening purposes, the GK assay is routinely run in a 384-MTP format, in a total volume of 33 μl/well. […]
MEASURED ATTRIBUTE: fold activation (human)

MOLECULE	MEASURED ATTRIBUTE	EXPERIMENTAL VALUE
COCCOc1cc(Oc2ccc(S(C)(=O)=O)cc2)cnc1Nc1nccs1	fold activation (human)	E (5-10 μM = E)
CS(=O)(=O)c1ccc(Oc2ccc(Nc3ccccn3)nc2)cc1	fold activation (human)	E (5-10 μM = E)
COCCOc1cc(Oc2ccccc2)cnc1Nc1nccs1	fold activation (human)	E (5-10 μM = E)
COCCOc1cc(Oc2cccnc2)cnc1Nc1nccs1	fold activation (human)	E (5-10 μM = E)
COCC(C)Oc1cc(Oc2ccccc2)cnc1Nc1nccs1 (stereo not shown)	fold activation (human)	E (5-10 μM = E)

Reported fold activation (human) of c1ccc(Oc2cnc(Nc3nccs3)c(OC3CCCC3)c2)cc1 : E (5-10 μM = E)

Reported fold activation (human) of OCc1csc(Nc2ccc(Oc3ccccc3)cn2)n1 : E (5-10 μM = E)

Reported fold activation (human) of COCCOc1cc(Oc2ccccc2)cnc1Nc1ccn(C)n1 : E (5-10 μM = E)
